B1: r11_951_TrROS_Hall (parent)
chain: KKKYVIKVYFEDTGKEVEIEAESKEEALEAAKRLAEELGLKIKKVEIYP

Variants of: B1
experiment.notes: folding stability dG (cDNA display proteolysis); higher = more stable
study.conditions: PBS, room temperature
value.type: folding stability dG (kcal/mol)
State the answer as a number, implicitly in kcal/mol.

[
  {
    "sequence.change": "K44Q",
    "unit.tag": "kcal/mol",
    "folding stability dG": 4.34
  },
  {
    "sequence.change": "L28W",
    "unit.tag": "kcal/mol",
    "folding stability dG": 4.64
  },
  {
    "sequence.change": "E20C",
    "unit.tag": "kcal/mol",
    "folding stability dG": 4.28
  },
  {
    "sequence.change": "L28D",
    "unit.tag": "kcal/mol",
    "folding stability dG": 4.11
  },
  {
    "sequence.change": "A30N",
    "unit.tag": "kcal/mol",
    "folding stability dG": 4.41
  },
  {
    "sequence.change": "E26Q",
    "unit.tag": "kcal/mol",
    "folding stability dG": 4.36
  },
  {
    "sequence.change": "R33Y",
    "unit.tag": "kcal/mol",
    "folding stability dG": 4.63
  },
  {
    "sequence.change": "K43M",
    "unit.tag": "kcal/mol",
    "folding stability dG": 4.44
  }
]

Which value of folding stability dG has been reported for "L40I" in the records?
3.96

Source of measurements: the MegaScale stability set (Tsuboyama et al. 2023)
